# assay_details: Cmax in F344 rat at 60 mg/kg, po
# Format: ADME, organism-based
# Design: dose 60 mg/kg, route oral
# measurement_conditions: in vivo
What Cmax was measured for each of the following?
Respond numerically; units are µg/mL and should not be typed.

Prompt line: Give recorded Cmax. `NC(=O)c1sc2nccc(Oc3ccc(CCO)cc3)c2c1N`
Response line: 1.54

Prompt line: Give recorded Cmax. `Cc1cc(Oc2ccc(CCCC(=O)N(C)C)cc2F)c2c(N)c(C(N)=O)sc2n1`
Response line: 0.096

----------
What solubility was measured for each of the following?
# assay_details: Solubility of the compound in pH 6.8 JP2 solution
# Format: physicochemical
Respond numerically; units are µg/mL and should not be typed.

Prompt line: Give recorded solubility. `NC(=O)c1sc2nccc(Oc3ccc(CCO)cc3)c2c1N`
Response line: 39

Prompt line: Give recorded solubility. `NC(=O)c1sc2nccc(OC3CCCCC3)c2c1N`
Response line: 28

Prompt line: Give recorded solubility. `Cc1cc(Oc2ccc(CCCC(=O)N(C)C)cc2Cl)c2c(N)c(C(N)=O)sc2n1`
Response line: 0.2

Prompt line: Give recorded solubility. `NC(=O)c1sc2nccc(OC3CCOCC3)c2c1N`
Response line: 180

Prompt line: Give recorded solubility. `NC(=O)c1sc2nccc(Oc3ccccc3)c2c1N`
Response line: 6.6

Prompt line: Give recorded solubility. `Cc1cc(Oc2ccc(CCCC(=O)N(C)C)cc2F)c2c(N)c(C(N)=O)sc2n1`
Response line: 0.3

Prompt line: Give recorded solubility. C[C@H]1CCCC[C@@H]1Oc1ccnc2sc(C(N)=O)c(N)c12 (relative stereo)
Response line: 42
